# Read-out: Interferon-gamma inducible Protein 10 (IP10), CXCL10 (gene 3627)
# experiment: BSK_hDFCGF_IP10: BioMAP Diversity Plus: hDFCGF Assay for Interferon-gamma inducible Protein 10 (IP10) Biomarker Activity (AID 2283053)
# conditionSet: primary human foreskin fibroblasts; actives raise or lower the signal
Calls of active or inactive are those of the source. The calls were made as follows: active = hit-call score of the fitted dose curve at least 0.9, where 1 is the maximum; inactive = score below 0.9.
I would appreciate it if you answered using one of these outcomes: Yes = active, No = inactive

Illustrative cases are given below, each with its answer.
[
  {
    "chemicalString": "CCOC(=O)CCCCCCCCC(=O)OCC",
    "assignedCategory": "No"
  },
  {
    "chemicalString": "CCCCCCCCCC(=O)OCC",
    "assignedCategory": "No"
  },
  {
    "chemicalString": "O=S(=O)(O)C(F)(F)C(F)(F)OC(F)(F)C(F)(F)F",
    "assignedCategory": "No"
  },
  {
    "chemicalString": "CCC(=O)OCC=Cc1ccccc1",
    "assignedCategory": "No"
  },
  {
    "chemicalString": "CC=CC(=O)C1=C(C)C=CCC1(C)C",
    "assignedCategory": "No"
  },
  {
    "chemicalString": "CCCCN(CCO)CCO",
    "assignedCategory": "No"
  },
  {
    "chemicalString": "C=CC(=O)OCC(CO)(COC(=O)C=C)COC(=O)C=C",
    "assignedCategory": "Yes"
  },
  {
    "chemicalString": "CC(=O)CCC=C(C)CCC=C(C)C",
    "assignedCategory": "No"
  },
  {
    "chemicalString": "C=C(F)C(=O)OC(C(F)(F)F)C(F)(F)F",
    "assignedCategory": "No"
  },
  {
    "chemicalString": "O=C(c1ccc(OCCN2CCCCC2)cc1)c1c(-c2ccc(O)cc2)sc2cc(O)ccc12",
    "assignedCategory": "Yes"
  }
]

Request: Tell me the assay call for c1ccc(Sc2ccccc2)cc1 please.
Result: Yes

Request: Same question for COc1ccccc1NC(=O)CC(C)=O please.
Result: No

Request: Same question for C#C[C@]1(O)CC[C@H]2[C@@H]3CCc4cc(O)ccc4[C@H]3CC[C@@]21C please.
Result: No

----------
# experiment: ATG_PXRE_CIS: Attagene CIS-FACTORIAL HepG2 Assay for human Pregnane X Receptor Element (PXRE) (AID 2282957)
# conditionSet: HepG2 Attagene CIS-FACTORIAL PXRE reporter, mRNA; actives raise or lower the signal
Activity calls are given as the source filed them. Rule for the calls: active = hit-call score of the fitted dose curve at least 0.9, where 1 is the maximum; inactive = score below 0.9.
I would appreciate it if you answered using one of these outcomes: active, inactive

Illustrative cases are given below, each with its answer.
[
  {
    "compound": "CCCCCCCCOC(C)=O",
    "assignedCategory": "active"
  },
  {
    "compound": "ClCCOCCOCCCl",
    "assignedCategory": "inactive"
  },
  {
    "compound": "C/C=C(\\C)C(=O)OC/C=C(\\C)CCC=C(C)C",
    "assignedCategory": "inactive"
  },
  {
    "compound": "NC(=O)c1cnccn1",
    "assignedCategory": "inactive"
  },
  {
    "compound": "CC/C=C\\CCCCO",
    "assignedCategory": "inactive"
  }
]

Request: Tell me the assay call for CCC(C)(C)C1CCC(OC)CC1 (stereo unspecified) please.
Result: active

Request: Same question for COc1ccc(C(C)=O)cc1 please.
Result: inactive

Request: Same question for C=CC(O)CCCCC (stereo unspecified) please.
Result: inactive

Request: Same question for C=CCOCC(O)CO (stereo unspecified) please.
Result: inactive

Request: Same question for CC1=CCC(=C(C)C)CC1 please.
Result: active

Request: Same question for CCCCCCCCCCO[C@@H]1O[C@H](CO)[C@@H](O)[C@H](O)[C@H]1O please.
Result: inactive

Request: Same question for CCCCCC(=O)O[C@]1(C(C)=O)CC[C@H]2[C@@H]3CCC4=CC(=O)CC[C@]4(C)[C@H]3CC[C@@]21C please.
Result: active

Request: Same question for O=S(=O)(O)c1cc(S(=O)(=O)O)c2c(N=Nc3ccccc3)c(O)ccc2c1 please.
Result: inactive

Request: Same question for CC(=O)c1ccc2ccccc2c1 please.
Result: inactive

Request: Same question for CCCCCCCCSCc1cc(C)c(O)c(CSCCCCCCCC)c1 please.
Result: active

Request: Same question for CC(=O)CC(=O)N(C)C please.
Result: inactive

Request: Same question for O=C(O)CS please.
Result: inactive

Request: Same question for CCCCOC(=O)C(C)OC(=O)CCC (stereo unspecified) please.
Result: inactive

Request: Same question for CCCCC/C=C\C=C\C(=O)OCC please.
Result: active

Request: Same question for O=S1(=O)CC(Cl)(Cl)C(Cl)(Cl)C1 please.
Result: inactive

Request: Same question for FC(F)(F)c1ccc(Cl)c(Cl)c1 please.
Result: active

Request: Same question for C=CC(=O)OCC(CO)(COC(=O)C=C)COC(=O)C=C please.
Result: inactive

Request: Same question for CC(C)C(=O)c1ccccc1 please.
Result: inactive

Request: Same question for CC/C=C\C#N please.
Result: inactive

Request: Same question for O=C(OCc1ccccc1)c1ccccc1O please.
Result: active

Request: Same question for NC(=O)c1cccnc1 please.
Result: active

----------
# Read-out: Transforming growth factor beta 1 (TGFb1), TGFB1 (gene 7040)
# experiment: BSK_KF3CT_TGFb1: BioMAP Diversity Plus: KF3CT Assay for Transforming growth factor beta 1 (TGFb1) Biomarker Activity (AID 2283072)
# conditionSet: primary human keratinocytes with fibroblasts; actives raise or lower the signal
Calls of active or inactive are those of the source. The calls were made as follows: active = hit-call score of the fitted dose curve at least 0.9, where 1 is the maximum; inactive = score below 0.9.
I would appreciate it if you answered using one of these outcomes: label 1 (active), label 0 (inactive)

[
  {
    "compound": "CCOC(=O)CCCCCCCCC(=O)OCC",
    "assignedCategory": "label 0"
  },
  {
    "compound": "COc1ccccc1NC(=O)CC(C)=O",
    "assignedCategory": "label 0"
  },
  {
    "compound": "CCCCCCCCCCCCS",
    "assignedCategory": "label 1"
  },
  {
    "compound": "CC(C)Cc1ccc(C(C)C(=O)O)cc1 (stereo not drawn)",
    "assignedCategory": "label 0"
  },
  {
    "compound": "c1ccc2c(c1)-c1ccc3ccc4cccc5cc-2c1c3c45",
    "assignedCategory": "label 0"
  }
]

Request: Tell me the assay call for c1ccc(Sc2ccccc2)cc1 please.
Result: label 1

Request: Same question for C=C1CC/C=C(\C)CC[C@@H]2[C@@H]1CC2(C)C please.
Result: label 1

Request: Same question for CC1(C)[C@H](C=C(Cl)Cl)[C@H]1C(=O)OCc1cccc(Oc2ccccc2)c1 please.
Result: label 0

----------
# Read-out: Vascular cell adhesion molecule 1 (VCAM1), VCAM1 (gene 7412)
# experiment: BSK_4H_VCAM1: BioMAP Diversity Plus: 4H Assay for Vascular cell adhesion molecule 1 (VCAM1) Biomarker Activity (AID 2283033)
# conditionSet: primary human endothelial cells (HUVEC); actives raise or lower the signal
Calls of active or inactive are those of the source. How the source made its calls: active means hit-call score of the fitted dose curve at least 0.9, where 1 is the maximum; inactive means score below 0.9.
I would appreciate it if you answered using one of these outcomes: active, inactive

[
  {
    "molecule": "CC1(C)[C@H](C=C(Cl)Cl)[C@H]1C(=O)OCc1cccc(Oc2ccccc2)c1",
    "assignedCategory": "inactive"
  },
  {
    "molecule": "C#C[C@]1(O)CC[C@H]2[C@@H]3CCc4cc(O)ccc4[C@H]3CC[C@@]21C",
    "assignedCategory": "inactive"
  },
  {
    "molecule": "C=C(C)C(N)=O",
    "assignedCategory": "inactive"
  },
  {
    "molecule": "O=S1(=O)CC(Cl)(Cl)C(Cl)(Cl)C1",
    "assignedCategory": "active"
  },
  {
    "molecule": "CC(C)Cc1ccc(C(C)C(=O)O)cc1 (stereo unspecified)",
    "assignedCategory": "inactive"
  },
  {
    "molecule": "CC(=O)OCC=C(C)CCC=C(C)CCC=C(C)C",
    "assignedCategory": "inactive"
  },
  {
    "molecule": "Nc1ccc(N)c([N+](=O)[O-])c1",
    "assignedCategory": "inactive"
  },
  {
    "molecule": "NC(=O)c1c(Cl)cccc1Cl",
    "assignedCategory": "inactive"
  },
  {
    "molecule": "CC(C)(CO)CO",
    "assignedCategory": "inactive"
  },
  {
    "molecule": "CCCCCCCC1CCCC1=O (stereo unspecified)",
    "assignedCategory": "active"
  }
]

Request: Tell me the assay call for CCCCN(CCO)CCO please.
Result: inactive

Request: Same question for CCCCCCCCCC(=O)OCC please.
Result: active

Request: Same question for CCCCOCCOCCO please.
Result: inactive

Request: Same question for C=C1CC/C=C(\C)CC[C@@H]2[C@@H]1CC2(C)C please.
Result: active

Request: Same question for CC(=O)c1ccc(C)cc1 please.
Result: inactive

Request: Same question for CCOC(=O)C=Cc1ccccc1 please.
Result: inactive
